Prostacyclin receptor (Homo sapiens, UniProt P43119) pKi, compiled from various sources.
Sequence (P43119 whole entry): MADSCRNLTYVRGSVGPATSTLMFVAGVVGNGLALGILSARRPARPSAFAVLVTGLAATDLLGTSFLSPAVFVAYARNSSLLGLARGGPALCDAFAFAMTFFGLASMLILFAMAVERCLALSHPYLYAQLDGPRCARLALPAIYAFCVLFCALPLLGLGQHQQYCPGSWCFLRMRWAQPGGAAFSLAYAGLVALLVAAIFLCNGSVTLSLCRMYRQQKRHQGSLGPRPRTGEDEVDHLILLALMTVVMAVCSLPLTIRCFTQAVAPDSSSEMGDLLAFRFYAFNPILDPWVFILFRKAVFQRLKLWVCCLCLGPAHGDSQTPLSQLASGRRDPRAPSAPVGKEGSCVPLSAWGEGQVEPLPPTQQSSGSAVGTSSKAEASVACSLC
Please treat pKi as minus the base-10 logarithm of the molar concentration.

Prompt: Return pKi measured with Prostacyclin receptor (Homo sapiens, UniProt P43119) given this compound: O=C(O)COc1cccc2c1CC[C@](O)(COC(=O)N(c1ccccc1)c1ccccc1)C2O (single isomer, unassigned)
Response: 6.96

Prompt: Return pKi measured with Prostacyclin receptor (Homo sapiens, UniProt P43119) given this compound: `Cc1ccc2c(c1)c(CC(=O)O)c(C)n2C(=O)c1ccc(OC[C@@H]2CN(C)c3ccccc3O2)cc1`
Response: 5.96

Prompt: Return pKi measured with Prostacyclin receptor (Homo sapiens, UniProt P43119) given this compound: `Cc1ccc(CC(=O)O)cc1NC(=O)c1ccc(OC[C@@H]2CN(C)c3ccccc3O2)c(C)c1C`
Response: 5.28

Prompt: Return pKi measured with Prostacyclin receptor (Homo sapiens, UniProt P43119) given this compound: O=C(O)C1CC1c1ccccc1-c1csc(-c2ccccc2OCc2ccccc2)c1 (stereo not drawn)
Response: 6.15

Prompt: Return pKi measured with Prostacyclin receptor (Homo sapiens, UniProt P43119) given this compound: `O=C([O-])COc1cccc(C[C@@H]2CCCC=C2c2nc(-c3ccccc3)c(-c3ccccc3)o2)c1.[Na+]`
Response: 7.27

Prompt: Return pKi measured with Prostacyclin receptor (Homo sapiens, UniProt P43119) given this compound: `Cc1cc(C(=O)Nc2cc(CC(=O)O)ccc2Cl)c(C)cc1OC[C@@H]1CN(C)c2ccccc2O1`
Response: 5.74
